- System: RPMI-6666
- method: 6 day proliferation assay (assay 1)
- Type: cell-based
- protocol-conditions: Homo sapiens, 144 h, 6 days, EZH2 WT, read-out: Compound A gIC50
- Procedure: Cells were cultured in appropriate medium in flasks to 80-100% confluency. Cells were harvested, counted and plated at a pre-determined optimal seeding density ranging from 50 cells per well to 4000 cells per well depending on the growth characteristics of individual cell lines in 384-well tissue culture plates (Greiner #781090). […] A time zero (t0) reading was taken on the day of compound addition. […] Luminescence was measured on the Tecan Safire2. Data were analyzed using Assay Client software. […]
measured-property: IC50 (µM)

1. CCCc1cc(C)[nH]c(=O)c1CNC(=O)c1cc(-c2ccc(N3CCN(C)CC3)nc2)cc2c1cnn2C(C)C 3.1
